Listing of entries alongside the reported fold induction at 10 µg/mL.
System: amyloid precursor protein (APP) proteolysis
assay: Repressor Release Assay (RRA)
Format: cell-based
study conditions: Conc 10 μg/mL; luciferase activity over diluent control; read-out: APPI Fold Increase
Could you respond with only the numeric value?

>>> test_value("C=CCCC(O)(CCC=C)[C@@H](NS(=O)(=O)c1ccc(Cl)s1)[C@@H](C)CC")
5.32
>>> test_value("O=S(=O)(N[C@H](CO)C1CCCCC1)c1ccc(Cl)s1")
4.2
>>> test_value("CC[C@H](C)[C@H](NS(=O)(=O)c1cccs1)C(O)CCC1OCCCO1 (stereo partly shown)")
1.6
>>> test_value("CCCCC(O)[C@@H](NS(=O)(=O)c1cccs1)[C@@H](C)CC (stereo partly shown)")
1.64
>>> test_value("CC[C@H](C)[C@H](NS(=O)(=O)c1cccs1)C(O)c1ccc(OC)cc1 (stereo partly shown)")
1.62

Which fold induction at 10 µg/mL is reported for this molecule? C=CC(O)[C@@H](NS(=O)(=O)c1ccc(Cl)s1)[C@@H](C)CC (stereo partly shown) 4.27

Which fold induction at 10 µg/mL is reported for this molecule? CC[C@H](C)[C@H](NS(=O)(=O)c1ccc(Cl)s1)C(C)O (stereo partly shown) 4.1

* * *

Listing of entries alongside the reported fold induction at 10 µg/mL.
System: amyloid precursor protein (APP) proteolysis
assay: Repressor Release Assay (RRA)
Assay type: cell-based
study conditions: Conc 10 μg/mL; luciferase activity over diluent control; read-out: APPI Fold Increase
Could you respond with only the numeric value?

>>> test_value("C=C(C)C(O)(C(=C)C)[C@@H](NS(=O)(=O)c1ccc(Br)s1)[C@@H](C)CC")
1.75
>>> test_value("CC(C)[C@@H](CO)NS(=O)(=O)c1ccc(Cl)s1")
3.7
>>> test_value("CC[C@H](C)[C@H](NS(=O)(=O)c1ccc(Cl)s1)C(O)C=C(C)C (stereo partly drawn)")
1.68
>>> test_value("CC[C@H](C)[C@H](NS(=O)(=O)c1ccc(Cl)s1)C(O)(c1ccccc1)c1ccccc1")
1.72
>>> test_value("CC[C@H](C)[C@H](NS(=O)(=O)c1ccc(Cl)s1)C(C)(C)O")
2.6

Which fold induction at 10 µg/mL is reported for this compound? CC[C@H](C)[C@@H](CO)NS(=O)(=O)c1sc(Cl)cc1Br 1.57

Which fold induction at 10 µg/mL is reported for this compound? CC[C@H](C)[C@H](NS(=O)(=O)c1ccc(Cl)s1)C(O)(c1ccc(Cl)cc1)c1ccc(Cl)cc1 3.42

Which fold induction at 10 µg/mL is reported for this compound? CC[C@H](C)[C@H](NS(=O)(=O)c1ccc(Cl)s1)C(O)c1ccc(F)cc1 (stereo partly drawn) 1.85

Which fold induction at 10 µg/mL is reported for this compound? CC[C@H](C)[C@H](NS(=O)(=O)c1ccc(Cl)s1)C(O)CCC1OCCCO1 (stereo partly drawn) 2.13

* * *

Tested on: amyloid precursor protein (APP) proteolysis
assay: Repressor Release Assay (RRA)
Assay type: cell-based
study conditions: Conc 10 μg/mL; luciferase activity over diluent control; read-out: APPI Fold Increase
Listing of entries alongside the reported fold induction at 10 µg/mL.
Could you respond with only the numeric value?

>>> test_value("C=CCCC(O)(CCC=C)[C@@H](NS(=O)(=O)c1ccc(Br)s1)[C@@H](C)CC")
1.52
>>> test_value("CC[C@H](C)[C@H](NS(=O)(=O)c1cccs1)C(O)c1ccc(SC)cc1 (stereo partly drawn)")
2.09
>>> test_value("CCCCCCC(O)[C@@H](NS(=O)(=O)c1cccs1)[C@@H](C)CC (stereo partly drawn)")
4.2
>>> test_value("CC[C@H](C)[C@H](NS(=O)(=O)c1cccs1)C(O)C(C)(C)C (stereo partly drawn)")
1.72
>>> test_value("CC[C@H](C)[C@H](NS(=O)(=O)c1ccc(Br)s1)C(O)(CC)CC")
1.5

Short answer please: fold induction at 10 µg/mL, amyloid precursor protein (APP) proteolysis, entry C/C=C(\C)C(O)(/C(C)=C/C)[C@@H](NS(=O)(=O)c1ccc(Cl)s1)[C@@H](C)CC (stereo partly drawn) 1.95

Short answer please: fold induction at 10 µg/mL, amyloid precursor protein (APP) proteolysis, entry CC[C@H](C)[C@H](NS(=O)(=O)c1cccs1)C(O)C1CCCC1 (stereo partly drawn) 2.57

Short answer please: fold induction at 10 µg/mL, amyloid precursor protein (APP) proteolysis, entry CCCCCC(O)[C@@H](NS(=O)(=O)c1cccs1)[C@@H](C)CC (stereo partly drawn) 3.59

Short answer please: fold induction at 10 µg/mL, amyloid precursor protein (APP) proteolysis, entry CC#CC(O)[C@@H](NS(=O)(=O)c1cccs1)[C@@H](C)CC (stereo partly drawn) 1.51

Short answer please: fold induction at 10 µg/mL, amyloid precursor protein (APP) proteolysis, entry C=CCCC(O)[C@@H](NS(=O)(=O)c1ccc(Cl)s1)[C@@H](C)CC (stereo partly drawn) 1.96

Short answer please: fold induction at 10 µg/mL, amyloid precursor protein (APP) proteolysis, entry C=CCC(O)[C@@H](NS(=O)(=O)c1cccs1)[C@@H](C)CC (stereo partly drawn) 2.04

Short answer please: fold induction at 10 µg/mL, amyloid precursor protein (APP) proteolysis, entry CC(c1ccccc1)C(CO)NS(=O)(=O)c1ccc(Br)s1 (racemic) 3.08

Short answer please: fold induction at 10 µg/mL, amyloid precursor protein (APP) proteolysis, entry CC[C@H](C)[C@H](NS(=O)(=O)c1ccc(Cl)s1)C(O)c1ccc(SC)cc1 (stereo partly drawn) 3.54

Short answer please: fold induction at 10 µg/mL, amyloid precursor protein (APP) proteolysis, entry CC[C@H](C)[C@H](NS(=O)(=O)c1ccc(Cl)s1)C(O)c1ccc(OC)cc1 (stereo partly drawn) 2.42

Short answer please: fold induction at 10 µg/mL, amyloid precursor protein (APP) proteolysis, entry CC[C@H](C)[C@H](NS(=O)(=O)c1cccs1)C(O)c1ccccc1C (stereo partly drawn) 1.51

Short answer please: fold induction at 10 µg/mL, amyloid precursor protein (APP) proteolysis, entry C=CCC(O)(CC=C)[C@@H](NS(=O)(=O)c1ccc(Cl)s1)[C@@H](C)CC 1.73

Short answer please: fold induction at 10 µg/mL, amyloid precursor protein (APP) proteolysis, entry C=CCCC(O)[C@@H](NS(=O)(=O)c1cccs1)[C@@H](C)CC (stereo partly drawn) 1.94

Short answer please: fold induction at 10 µg/mL, amyloid precursor protein (APP) proteolysis, entry CCC(O)[C@@H](NS(=O)(=O)c1cccs1)[C@@H](C)CC (stereo partly drawn) 1.52

Short answer please: fold induction at 10 µg/mL, amyloid precursor protein (APP) proteolysis, entry CC[C@H](C)[C@@H](CO)NS(=O)(=O)C1=CC=C(Br)S1(=O)=O 5.23

Short answer please: fold induction at 10 µg/mL, amyloid precursor protein (APP) proteolysis, entry CC[C@H](C)[C@H](NS(=O)(=O)c1ccc(Cl)s1)C(O)c1ccc(N(C)C)cc1 (stereo partly drawn) 3.97

Short answer please: fold induction at 10 µg/mL, amyloid precursor protein (APP) proteolysis, entry CC[C@H](C)[C@H](NS(=O)(=O)c1ccc(Cl)s1)C(O)(c1ccc(OC)cc1)c1ccc(OC)cc1 1.51

Short answer please: fold induction at 10 µg/mL, amyloid precursor protein (APP) proteolysis, entry CC[C@H](C)[C@H](NS(=O)(=O)c1ccc(Cl)s1)C(O)(c1cccc2ccccc12)c1cccc2ccccc12 2

Short answer please: fold induction at 10 µg/mL, amyloid precursor protein (APP) proteolysis, entry CC[C@H](C)[C@H](NS(=O)(=O)c1ccc(Cl)s1)C(O)(CC)CC 1.78

Short answer please: fold induction at 10 µg/mL, amyloid precursor protein (APP) proteolysis, entry CC[C@H](C)[C@H](NS(=O)(=O)c1cccs1)C(O)c1ccc(N(C)C)cc1 (stereo partly drawn) 4.23

Short answer please: fold induction at 10 µg/mL, amyloid precursor protein (APP) proteolysis, entry CC[C@H](C)[C@H](NS(=O)(=O)c1ccc(Cl)s1)C(O)c1ccc(Cl)cc1 (stereo partly drawn) 3.64

Short answer please: fold induction at 10 µg/mL, amyloid precursor protein (APP) proteolysis, entry C=CC(O)[C@@H](NS(=O)(=O)c1cccs1)[C@@H](C)CC (stereo partly drawn) 1.83

Short answer please: fold induction at 10 µg/mL, amyloid precursor protein (APP) proteolysis, entry CCCCCC(O)(CCCCC)[C@@H](NS(=O)(=O)c1ccc(Cl)s1)[C@@H](C)CC 3.3
